- measurement.target: human TYK2 (JH2domain-pseudokinase) (Homo sapiens (Human), UniProt P29597)
- Sequence (P29597 556-888): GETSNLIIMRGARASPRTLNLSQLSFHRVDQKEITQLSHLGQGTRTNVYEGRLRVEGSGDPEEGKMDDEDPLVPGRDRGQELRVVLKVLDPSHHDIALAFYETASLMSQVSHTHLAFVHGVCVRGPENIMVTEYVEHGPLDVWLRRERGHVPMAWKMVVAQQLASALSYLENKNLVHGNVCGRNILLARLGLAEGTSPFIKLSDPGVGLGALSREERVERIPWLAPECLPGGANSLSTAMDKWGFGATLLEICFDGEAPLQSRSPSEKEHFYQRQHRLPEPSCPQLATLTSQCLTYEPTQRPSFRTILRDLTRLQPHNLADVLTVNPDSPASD
- test.name: TYK2 JH2 Domain Binding Assay (KINOMEscan, DiscoveRx)
- run.parameters: 11-point dilution, duplicate
pKd: −log10 of the molar value.
Answer each item with its documented pKd.

Task: Please give measured pKd of the following entry: Cc1nc2c(Nc3ccc(-c4cnn(C)c4C)cc3S(C)(=O)=O)cc(Nc3cccc(C(F)(F)F)n3)nc2[nH]1
Output: 9.30 to 10.00

Task: Please give measured pKd of the following entry: Cc1ccc(-c2ccc(Nc3cc(NC(=O)C4CC4)nc4[nH]c(C(F)F)nc34)c(S(C)(=O)=O)c2)o1
Output: 8.00 to 9.00

Task: Please give measured pKd of the following entry: COCc1ccc(Nc2cc(NC(=O)C3CC3)nc3[nH]c(C)nc23)c(N(C)S(C)(=O)=O)c1
Output: 9.30 to 10.00

Task: Please give measured pKd of the following entry: CS(=O)(=O)c1cc([C@H]2CCCCO2)ccc1Nc1cc(Nc2cc3n(n2)CCOC3)nc2[nH]c(C(F)F)nc12
Output: > 10.00

Task: Please give measured pKd of the following entry: CS(=O)(=O)c1cc([C@@H]2CCCCO2)ccc1Nc1cc(NC(=O)C2CC2(F)F)nc2[nH]c(C(F)F)nc12 (stereo partly drawn)
Output: 9.00 to 9.30

Task: Please give measured pKd of the following entry: Cc1cc(-c2ccc(Nc3cc(Nc4cc5n(n4)CCOC5)nc4[nH]c(C(F)F)nc34)c(S(C)(=O)=O)c2)nn1C
Output: > 10.00

Task: Please give measured pKd of the following entry: CC1(C)CC[C@H](c2ccc(Nc3cc(NC(=O)C4CC4)nc4[nH]c(C(F)F)nc34)c(S(C)(=O)=O)c2)O1
Output: 9.30 to 10.00

Task: Please give measured pKd of the following entry: Cc1nc2c(Nc3ccc(-c4cc(C)n(C)n4)cc3S(C)(=O)=O)cc(Nc3cc4n(n3)CCOC4)nc2[nH]1
Output: > 10.00

Task: Please give measured pKd of the following entry: CN(c1cc(N2CCC2)ccc1Nc1cc(NC(=O)C2CC2)nc2[nH]c(C(F)F)nc12)S(C)(=O)=O
Output: 9.00 to 9.30

Task: Please give measured pKd of the following entry: Cn1cnc(-c2ccc(Nc3cc(NC(=O)[C@H]4C[C@H]4F)nc4[nH]c(C(F)F)nc34)c(S(C)(=O)=O)c2)c1
Output: 9.30 to 10.00

Task: Please give measured pKd of the following entry: Cc1csc(-c2ccc(Nc3cc(NC(=O)C4CC4)nc4[nH]c(C)nc34)c(S(C)(=O)=O)c2)n1
Output: 9.30 to 10.00

Task: Please give measured pKd of the following entry: COc1c(Nc2cc(Nc3cc(CO)ccn3)nc3[nH]cnc23)cccc1-c1ncn(C)n1
Output: 9.00 to 9.30

Task: Please give measured pKd of the following entry: Cc1nc2c(Nc3ccc(C4=NC(C)(C)CO4)cc3S(C)(=O)=O)cc(NC(=O)[C@@H]3C[C@@H]3F)nc2[nH]1
Output: 8.00 to 9.00

Task: Please give measured pKd of the following entry: COc1c(Nc2cc(Nc3cnc(N4CCOCC4)c(C#N)n3)nc3[nH]c(C(F)F)nc23)cccc1-c1nnn(C)n1
Output: 8.00 to 9.00

Task: Please give measured pKd of the following entry: COc1cc(-c2nc(C)nn2C)ccc1Nc1cc(NC(=O)C2CC2)nc2[nH]c(C)nc12
Output: 9.00 to 9.30

Task: Please give measured pKd of the following entry: COc1c(Nc2cc(Nc3cccc(C#N)n3)nc3[nH]c(C)nc23)cccc1-c1nc(C)cs1
Output: 8.00 to 9.00

Task: Please give measured pKd of the following entry: CS(=O)(=O)c1cc(F)ccc1Nc1cc(Nc2cc3c(nn2)CCC3)nc2[nH]c(C(F)F)nc12
Output: 9.30 to 10.00

Task: Please give measured pKd of the following entry: CS(=O)(=O)c1cc([C@@H]2CCC(F)(F)CO2)ccc1Nc1cc(NC(=O)C2CC2)nc2[nH]c(C(F)F)nc12
Output: 9.30 to 10.00

Task: Please give measured pKd of the following entry: COc1c(Nc2cc(Nc3ccc(N4CC[C@H](OC)C4)c(C#N)n3)nc3[nH]c(C)nc23)cccc1-c1nnn(C)n1
Output: 9.30 to 10.00

Task: Please give measured pKd of the following entry: Cc1nc2c(Nc3ccc(-c4ncc(C)s4)cc3S(C)(=O)=O)cc(Nc3cccc(C#N)n3)nc2[nH]1
Output: 9.30 to 10.00

Task: Please give measured pKd of the following entry: COc1c(Nc2cc(NC(=O)C3CC3)nc3[nH]c(C(F)F)nc23)cccc1-n1ncnc1C
Output: < 8.00

Task: Please give measured pKd of the following entry: COCc1ccc(Nc2cc(NC(=O)C3CC3)nc3[nH]c(C(F)F)nc23)c(S(C)(=O)=O)c1
Output: 9.30 to 10.00

Task: Please give measured pKd of the following entry: COc1c(Nc2cc(NC(=O)[C@@H]3C[C@@H]3F)nc3[nH]c(C)nc23)cccc1-c1ncn(C)n1
Output: 9.00 to 9.30

Task: Please give measured pKd of the following entry: COc1c(Nc2cc(Nc3cnc(C(C)(C)OC)c(C#N)n3)nc3[nH]c(C(F)F)nc23)cccc1-c1nnn(C)n1
Output: 8.00 to 9.00

Task: Please give measured pKd of the following entry: CC1(C)CSC(c2ccc(Nc3cc(NC(=O)C4CC4)nc4[nH]c(C(F)F)nc34)c(S(C)(=O)=O)c2)=N1
Output: 8.00 to 9.00

Task: Please give measured pKd of the following entry: Cc1cc(-c2ccc(Nc3cc(NC(=O)C4CC4(F)F)nc4[nH]c(C(F)F)nc34)c(S(C)(=O)=O)c2)nn1C (stereo not drawn)
Output: 8.00 to 9.00

Task: Please give measured pKd of the following entry: Cc1nc2c(Nc3ccc([C@@H]4CCCO4)cc3S(C)(=O)=O)cc(NC(=O)[C@H]3CC3(F)F)nc2[nH]1
Output: 9.30 to 10.00

Task: Please give measured pKd of the following entry: Cc1nc(-c2ccc(Nc3cc(NC(=O)C4CC4)nc4[nH]c(C(F)F)nc34)c(N(C)S(C)(=O)=O)c2)n(C)n1
Output: 9.30 to 10.00

Task: Please give measured pKd of the following entry: Cc1nc2c(Nc3ccc([C@H]4CCC(C)(C)O4)cc3S(C)(=O)=O)cc(NC(=O)C3CC3)nc2[nH]1
Output: 9.30 to 10.00

Task: Please give measured pKd of the following entry: CN(c1cc(-c2cnn(C)c2)ccc1Nc1cc(NC(=O)C2CC2(F)F)nc2[nH]c(C(F)F)nc12)S(C)(=O)=O (stereo not drawn)
Output: 9.00 to 9.30
